tested on: M14; assay: NCI tumour cell line growth inhibition, 48 h
Active and inactive are the calls of the source. No stated cut-off is given here; in the data, active = GI50 up to about 1.1 µM and inactive = higher.
measurement label: GI50

// known answers, use as guide
[[record]]
compound = "CCOC(=O)NNC(=O)NCCNC(=O)NNC(=O)OCC"
measurement_label = "GI50"
recorded_result = "> 100 µM (inactive)"

[[record]]
compound = "COc1cc(-c2cc(-c3ccccc3)nc(-c3c(OC)ccc4c(C)cc(=O)oc34)c2)cc(OC)c1OC"
measurement_label = "GI50"
recorded_result = "> 100 µM (inactive)"

[[record]]
compound = "O=C(N/N=C(COc1cccc(Cl)c1)\\N=C\\c1ccncc1)c1ccncc1"
measurement_label = "GI50"
recorded_result = "> 100 µM (inactive)"

[[record]]
compound = "CCOC(=O)c1c(N2CCCC2)[nH]c(=O)c(C(c2cccs2)c2c(O)c(C(=O)OCC)c(N3CCCC3)[nH]c2=O)c1O"
measurement_label = "GI50"
recorded_result = "> 100 µM (inactive)"

[[record]]
compound = "CN1CCC2(CC1)/C(=N/C1CCCCC1)NC(=S)N2c1ccccc1"
measurement_label = "GI50"
recorded_result = "> 100 µM (inactive)"

[[record]]
compound = "CC(C)[C@@H]1C=C(c2ccccc2)c2ccccc2C1C(C#N)(C#N)C(C)C (stereo not given in full)"
measurement_label = "GI50"
recorded_result = "> 100 µM (inactive)"

[[record]]
compound = "COc1ccc(OC)c2sc(N3C(=O)/C(=C/c4ccc(N(C)C)cc4)N=C3c3ccccc3)nc12"
measurement_label = "GI50"
recorded_result = "99.3 µM (inactive)"

[[record]]
compound = "Cc1nc2ccccc2c(=O)n1/N=C(\\N=N\\c1cc(Cl)ccc1Cl)c1cccc(-c2ccco2)c1"
measurement_label = "GI50"
recorded_result = "> 100 µM (inactive)"


query: Dear colleague, I am looking for the recorded GI50 of the following compound: Cc1cc(O)nc(NN2C(Cl)C(=O)C2c2ccc(Cl)cc2)n1 (stereo not given)
result: 13.4 µM (inactive)

query: Dear colleague, I am looking for the recorded GI50 of the following compound: FC(F)(F)c1ccc2c(c1)N(CCCNCCN1CCOCC1)c1ccccc1S2
result: 1.95 µM (inactive)
